test: in vivo; conditions: female, CD-1, mouse, serum, po, 18 mg/kg
Recorded metric: AUC(0-t) (ng·h/mL)
Numbers only, in ng·h/mL.

Query: Write down AUC(0-t) measured for item "[2H]C([2H])(C(=O)N(C)C)c1ccc(N2CCCN(c3ccnc4sc(C(N)=O)c(N)c34)CC2)cc1"
Response: 380

---

tested on: PSA expression in CRPC cell line C4-2; test: PSA expression in C4-2 cell culture supernatant; format: cell-based; settings: C4-2 culture supernatant, 4-day treatment, FBS-supplemented regular media; read-out: IC50, suppression of PSA expression
Recorded metric: pIC50
Answers are plain numbers, as −log10 of the molar value.

Query: Name the recorded pIC50 of the item CN1CCN(C(=O)c2ccc3cc(CCNc4ncnc5ccc(C#N)cc45)ccc3c2)CC1 [Senexin B, reference compound] in your answer.
Response: 6.59
